B1: TPR t1 (parent)
chain: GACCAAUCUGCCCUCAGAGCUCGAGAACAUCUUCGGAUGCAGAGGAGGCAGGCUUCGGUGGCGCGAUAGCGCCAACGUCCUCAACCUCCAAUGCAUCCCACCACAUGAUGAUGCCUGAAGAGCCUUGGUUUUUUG

Variants of: B1
Assay: polymerase ribozyme fitness, log enrichment relative to wild type (log ratio); higher = more active; in vitro selection for triplet polymerase activity
Here the recorded polymerase ribozyme fitness (log ratio) is given for each entry.
measured parameter: polymerase ribozyme fitness (log ratio)

INSERT INTO assay_data (biosequence, val) VALUES
  ('GACCAAUCUUCCCUCAGAGCUCGAGAACAUCUUCGGAUGCAGAGGAGGCAGGCUUCAGUAGCGCGAUAGCGCCAACGUCCUCAACCUCCAAUGCAUCCCACCACAUGAUGAUGCCUGAAGAGCCUUGGUUUUUUG [G10U G57A G60A]', -0.571),
  ('GAACAAUCUGCCCUCAGAGCUCGAGAACAUCUUCGGAUGCAGAUGAGGCAGGCUUCGGUGGCCCGAUAGCGCCAACGUCCUCAACCUCCAAUGCAUCCCACCACAUGAUGAUGCCUGAAGAGCCUUGGUUUUUUG [C3A G44U G63C]', -3.25),
  ('GAUCAAUCUGCCCUCAGAGCUCGAGAACAUCUUCGGAUGCAGAGGAGGCAGGAUUAGGUGGCGCGAUAUCGCCAACGUCCUCAACCUCCAAUGCAUCCCACCACAUGAUGAUGCCUGAAGAGCCUUGGUUUUUUG [C3U C53A C56A G69U]', -0.204),
  ('GACCAAUCUGCCCUCAGAGCUCGAGAACAUCUUCGGAUGCAGAGGAGACAGGCUUCGGUGGCGCGAUAGCGGCAACGUCCUCAACCUCCAAUGCAUCCCACCACAUGAUGAUGCCUGAAGAGCCUUGGUUUUUUG [G48A C72G]', -0.135),
  ('GACCAAUCUGCCCUCAGAGCUCGAGAACAUCUUCGGAUGCAGAGGAGGCAGGCUUCGGUGGCGCGAUAGCACCAACGUCCUCGACCUCCAAUGCAUCCCACCACAUGAUGAUGCCUGAAGAGCCUUGGUUUUUUG [G71A A83G]', -1.61),
  ('GACCAAUCUGCCCUCAGAGCUCGAGAACAUCUUCGGAUGCAGAGGAGGCAGGCUUCGGUGGCGCGAUAGCGCCAUCGUCCUCAACCUCCAAUGCAUCCCACCACAUGAUGCUGCCUGAAGAGCCUUGGUUUUUUG [A75U A111C]', 0.255),
  ('GACCAAUCUGCCCUCAGAGCUCGAGAACAUCUUCGGAUGCAGAGGAGGCAGGCUUCGGUGGCGCGAUACCGCCAACGUCCUCAACCUCCAAUGCAUCCCACCACAUGAUGAUGCCUGAAUAGCCUUGGUUUUUUG [G69C G120U]', -0.245),
  ('GACCAAUCUGCCCUCAGAGCUCGAGAACAUCUUCGGAUGCAGAGGAGGCAGGCUUCGGUGGCGCGAUAGCCCCAACGUCCUCAAUCUCCAAUGCAUCCCACCACAUGAUGAUGCCUGAAGAGCCUUGGUUUUUUG [G71C C85U]', -2.23),
  ('GACCAAUCUGCCCUCAGAGCUCGAGAACAUCUUCGGAUGCAGAGGAGGCAAGCUUCGGUGGCGCGAUAGCGCCAACGUACUCAACCUCCAAUGCAUCCCACCACAUGAUGAUACCUGAAGAGCCUUGGUUUUUUG [G51A C79A G113A]', -3.64),
  ('GACCAAUCUGCCCUCAGAGCUCGAGAACAUCUUCGGAUGCAGAGGAGGCAGGCUUCGCUGGCGCGAUAGCGCCAACGUCCUCAACCUCCAAUGCAUCCCACCACAUGAUGAUGCCUGUAGAGCCUUCGUUUUUUG [G58C A118U G127C]', -1.14),
  ('GACCAACCUGCCCUCAGAGCUCGAGAACAUCUUCGGAUACAGAGGAGGCAGGCUUCGGUGGCGCGAUAGCGCCAACGUCCUCAACCUCCAAUGCAUCCCACCACAUGAUGAUGCCUGAAGAGCUUUGGUUUUUUG [U7C G39A C124U]', 0.776);
